# protocol.conditions: rabbit, in vivo, 20 mg/kg
property.label: Cmax (ng/mL)
Answers are plain numbers, in ng/mL.

input: What does the data say about its Cmax? Entry: CO[C@H]1/C=C/O[C@@]2(C)Oc3c(C)c(O)c4c(O)c(c(/C=N/N5CCN(C/C=C/c6ccccc6)CC5)c(O)c4c3C2=O)NC(=O)/C(C)=C\C=C\[C@H](C)[C@H](O)[C@@H](C)[C@@H](O)[C@@H](C)[C@H](OC(C)=O)[C@@H]1C [T-9, reference compound]
output: 2750
